ASSAYED_TARGET: plasma purified human AT-III (antithrombin III)
MEASUREMENT_NOTES: AT-III/UFH inhibition K0.5, ratio to Catalyst Biosciences WT FIXa
PARAMETER: K0.5-mut/K0.5-wt
// return just the number, without any unit appended

Input: Suppose we examine the protein FIXa-Y155F/K228N/K247N/N249S (protein) chain 1: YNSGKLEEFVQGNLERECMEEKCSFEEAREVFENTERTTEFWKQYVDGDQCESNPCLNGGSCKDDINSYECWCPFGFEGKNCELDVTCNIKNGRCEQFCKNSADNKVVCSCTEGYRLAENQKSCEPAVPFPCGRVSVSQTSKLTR chain 2: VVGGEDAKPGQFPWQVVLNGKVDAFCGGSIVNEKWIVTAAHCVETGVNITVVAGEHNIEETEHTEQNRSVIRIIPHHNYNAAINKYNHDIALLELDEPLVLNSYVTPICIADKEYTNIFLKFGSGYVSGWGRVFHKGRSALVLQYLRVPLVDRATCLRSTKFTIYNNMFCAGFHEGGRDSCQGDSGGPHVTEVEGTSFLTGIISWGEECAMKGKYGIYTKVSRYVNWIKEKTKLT ; what K0.5-mut/K0.5-wt value has been reported?
Output: 1.4
